Target: TYK2 (Homo sapiens (Human), UniProt P29597)
Sequence (P29597 897-1176): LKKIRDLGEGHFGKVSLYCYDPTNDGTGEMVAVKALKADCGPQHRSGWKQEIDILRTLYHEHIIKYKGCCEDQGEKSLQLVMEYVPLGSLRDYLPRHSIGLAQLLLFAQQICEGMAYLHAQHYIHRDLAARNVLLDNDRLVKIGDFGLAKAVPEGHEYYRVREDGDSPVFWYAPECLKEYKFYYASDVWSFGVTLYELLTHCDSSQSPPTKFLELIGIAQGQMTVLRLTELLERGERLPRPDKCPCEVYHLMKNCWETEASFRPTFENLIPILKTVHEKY
Experiment: JAK Caliper Enzyme Assay at 1 mM ATP, TYK2
Assay type: biochemical
Conditions: JAK Caliper enzyme assay
Description: Compounds of the invention were evaluated by in vitro methods to determine their respective ability to inhibit the JAK kinases (TYK2, JAK1, JAK2, JAK3). The human JAK inhibitory activity was determined by using a microfluidic assay to monitor phosphorylation of a synthetic peptide by the recombinant human kinase domain of each of the four members of the JAK family, JAK1, JAK2, JAK3 and TYK2. […]
pIC50: −log10 of the molar value.
Reported pIC50 values follow for various molecules
Reported metric: pIC50

Molecule	Reported result
N#CCC1(n2ncc(-c3cc(-c4cnc5cccnn45)cc4ncccc34)n2)CC(C#N)C1 (stereo not shown) [Example 421]	6.95
CCn1cc(-c2cc(-c3cnn(C4(CC#N)CN(S(C)(=O)=O)C4)n3)c3cccnc3c2)ccc1=O [Example 413]	7.05
CS(=O)(=O)N1CC(CC#N)(n2ncc(-c3cc(-c4cc(F)ccc4O)cc4ncccc34)n2)C1 [Example 442]	5.12
CS(=O)(=O)Nc1ccc(-c2cc(-c3cnn(C4(CC#N)CC(C#N)C4)n3)c3cccnc3c2)nc1 (stereo not shown) [Example 375]	7.52

Reference source: patent US11254668B2
